Recorded Plant response rating, Wheat for the following molecules
System: wheat (Triticum aestivum)
Test: Test A pre-/postemergence plant response
Type: in vivo
Settings: Preemergence, 500 g ai/ha; 0 to 100 scale (0 no effect, 100 complete control)
From the text: […] Plants ranged in height from 2 to 10 cm and were in the one- to two-leaf stage for the postemergence treatment. Treated plants and untreated controls were maintained in a greenhouse for approximately 10 days, after which time all treated plants were compared to untreated controls and visually evaluated for injury. […]
Could you respond with only the numeric value?

IN: Param readout = Plant response rating, Wheat; param system = wheat (Triticum aestivum); param query = Cc1cc(-c2ccc(C(F)(F)F)cc2)nn1-c1c(O)c(C(C)C)nn(C)c1=O [Compound 27] ; response: value
OUT: 100

IN: Param readout = Plant response rating, Wheat; param system = wheat (Triticum aestivum); param query = CCc1cc(-c2ccc(Cl)cc2)nn1-c1c(O)cnn(C)c1=O [Compound 21] ; response: value
OUT: 100

IN: Param readout = Plant response rating, Wheat; param system = wheat (Triticum aestivum); param query = Cc1cc(-c2ccc(C(F)(F)F)cc2)nn1-c1c(O)c(C(F)(F)F)nn(C)c1=O [Compound 42] ; response: value
OUT: 0

IN: Param readout = Plant response rating, Wheat; param system = wheat (Triticum aestivum); param query = Cc1nn(C)c(=O)c(-n2nc(-c3ccc(Cl)cc3)cc2C)c1O [Compound 15] ; response: value
OUT: 80

---

Tested on: wild oat (Avena fatua)
Test: Test B pre-/postemergence plant response
Assay type: in vivo
Details: Preemergence, 16 g ai/ha; scale 0 to 100 (0 no effect, 100 complete control)
READOUT LABEL: Plant response rating, Oat, Wild

IN: Report Plant response rating, Oat, Wild for CCc1cc(-c2ccc(C(F)(F)F)cc2)nn1-c1c(OC(=O)OC(C)C)cnn(C)c1=O [Compound 12] please.
OUT: 60

IN: Report Plant response rating, Oat, Wild for Cc1ccc(-c2ccc(Cl)cc2)cc1-c1c(O)cnn(C)c1=O [Compound 46] please.
OUT: 0

IN: Report Plant response rating, Oat, Wild for Cc1cc(-c2ccc(C(F)(F)F)cc2)nn1-c1c(O)c(C(C)C)nn(C)c1=O [Compound 27] please.
OUT: 0

IN: Report Plant response rating, Oat, Wild for Cn1ncc(O)c(-n2nc(-c3ccc(Cl)cc3)cc2C2CC2)c1=O [Compound 45] please.
OUT: 80

IN: Report Plant response rating, Oat, Wild for Cc1cc(-c2ccc(Cl)cc2)nn1-c1c(OS(=O)(=O)C(C)C)cnn(C)c1=O [Compound 50] please.
OUT: 40

---

Tested on: umbrella sedge (Cyperus difformis)
Assay: Test B flooded paddy test plant response
Format: in vivo
Settings: Flood, 31 g ai/ha; scale 0 to 100
Recorded Plant response rating, Sedge, Umbrella for the following molecules

IN: Report Plant response rating, Sedge, Umbrella for "Cc1cc(-c2ccc(Cl)cc2)nn1-c1c(OC(=O)c2ccccc2Cl)cnn(C)c1=O" please.
OUT: 20

IN: Report Plant response rating, Sedge, Umbrella for "Cn1ncc(O)c(-n2nc(-c3ccc(Cl)cc3)cc2C2CC2)c1=O" please.
OUT: 0

IN: Report Plant response rating, Sedge, Umbrella for "CCc1cc(-c2ccc(Cl)cc2)nn1-c1c(O)cnn(C)c1=O" please.
OUT: 0

---

System: green foxtail (Setaria viridis)
Assay: Test C pre-/postemergence plant response
Assay type: in vivo
Settings: Preemergence, 31 g ai/ha; scale 0 to 100 (0 no effect, 100 complete control)
Recorded Plant response rating, Foxtail, Green for the following compounds
Could you respond with only the numeric value?

SMILES DATA | Plant response rating, Foxtail, Green
Cc1cc(-c2ccc(C(F)(F)F)c(F)c2)nn1-c1c(O)c(C(F)(F)F)nn(C)c1=O | 100
Cc1cc(-c2ccc(Cl)cc2)nn1-c1c(OC(=O)CC(C)C)cnn(C)c1=O | 100
CCOC(=O)Oc1cnn(C)c(=O)c1-n1nc(-c2ccc(Cl)cc2)cc1C | 100

Could you now look at the following compound, please?
IN: Report Plant response rating, Foxtail, Green for "Cc1cc(-c2ccc(Cl)cc2)nn1-c1c(OS(=O)(=O)c2cccc3ccccc23)cnn(C)c1=O" please.
OUT: 80
